Biological target: T1, BMP2 (human)
T1 chain: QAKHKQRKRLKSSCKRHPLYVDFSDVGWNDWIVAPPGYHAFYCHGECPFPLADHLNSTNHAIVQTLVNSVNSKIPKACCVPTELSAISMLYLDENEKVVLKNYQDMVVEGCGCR
Test: SPR
pKd: −log10 of the molar value.
Here the recorded pKd is given for each entry.
REPORTED_PROPERTY: pKd

[[record]]
binder = "E7 (antibody, V domains shown) VH: EVQLVESGGGLVQAGGSLRLSCAASGSIRGFVAMAWYRQAPGKQREWVATVTNGGTLYGDSVKGRFTGSRDNAKNTVYLQMNSLKPEDTAVYYCALRQIGASGYDYWGQGTQVTVSS"
reported_property = "pKd"
observed_result = 8.97

[[record]]
binder = "C8-E7 (antibody, V domains shown) V domain 1: EVQLVESGGGLVQAGGSLRLSCAASGRTFRINDMGWYRQAPGKSRDMVARITSGGNTNYADSVKGRFTISRDNAKNTVYLQMNSLKPEDTAVYYCNADGLRFDSTRYRPFDSWGQGTQVTVSS V domain 2: EVQLVESGGGLVQAGGSLRLSCAASGSIRGFVAMAWYRQAPGKQREWVATVTNGGTLYGDSVKGRFTGSRDNAKNTVYLQMNSLKPEDTAVYYCALRQIGASGYDYWGQGTQVTVSS"
reported_property = "pKd"
observed_result = 9.26

[[record]]
binder = "C4-C4 (antibody, V domains shown) V domain 1: EVQLVESGGGLVQAGGSLRLSCAASGRTFSTYAMGWFRQAPGKEREFVAAISKGGGITYYSDSVRGRFTISKENAKNTVYLQMNSLKPEDTAVYYCAADPVSSVAKSPVAYPYWGQGTQVTVSS V domain 2: EVQLVESGGGLVQAGGSLRLSCAASGRTFSTYAMGWFRQAPGKEREFVAAISKGGGITYYSDSVRGRFTISKENAKNTVYLQMNSLKPEDTAVYYCAADPVSSVAKSPVAYPYWGQGTQVTVSS"
reported_property = "pKd"
observed_result = 8.67

[[record]]
binder = "hNoggin (protein) QHYLHIRPAPSDNLPLVDLIEHPDPIFDPKEKDLNETLLRSLLGGHYDPGFMATSPPEDRPGGGGGAAGGAEDLAELDQLLRQRPSGAMPSEIKGLEFSEGLAQGKKQRLSKKLRRKLQMWLWSQTFCPVLYAWNDLGSRFWPRYVKVGSCFSKRSCSVPEGMVCKPSKSVHLTVLRWRCQRRGGQRCGWIPIQYPIISECKCSC"
reported_property = "pKd"
observed_result = 9.02

[[record]]
binder = "C8-C8 (antibody, V domains shown) V domain 1: EVQLVESGGGLVQAGGSLRLSCAASGRTFRINDMGWYRQAPGKSRDMVARITSGGNTNYADSVKGRFTISRDNAKNTVYLQMNSLKPEDTAVYYCNADGLRFDSTRYRPFDSWGQGTQVTVSS V domain 2: EVQLVESGGGLVQAGGSLRLSCAASGRTFRINDMGWYRQAPGKSRDMVARITSGGNTNYADSVKGRFTISRDNAKNTVYLQMNSLKPEDTAVYYCNADGLRFDSTRYRPFDSWGQGTQVTVSS"
reported_property = "pKd"
observed_result = 10.20

[[record]]
binder = "C8 (antibody, V domains shown) VH: EVQLVESGGGLVQAGGSLRLSCAASGRTFRINDMGWYRQAPGKSRDMVARITSGGNTNYADSVKGRFTISRDNAKNTVYLQMNSLKPEDTAVYYCNADGLRFDSTRYRPFDSWGQGTQVTVSS"
reported_property = "pKd"
observed_result = 9.06


Where do these numbers come from? They come from patent US10280218B2.
